Please go through the items and note down their pKd.
target: T1, SARS-CoV-2 spike protein (nCoV-S Spike Protein Trimer, NIH) (SARS-CoV-2, UniProt P0DTC2 14-1208); assay: HT-SPR (Carterra LSA), mAb on chip, SARS-CoV-2 spike protein titrated, 37 C
T1 construct: also called S protein
Give bare numbers, as −log10 of the molar value.

binder="antibody 506 (antibody, V domains shown) VH: QITLKESGPTLVKPTQTLTLTCTFSGFSLSTSGVGVGWIRQPPGKALEWLALIYWDDDKRYSPSLKSRLTITKDTSKNQVVLTMTNMDPVDTATYYCAHHSLSSIFDYWGQGTLVTVSS VL: QSALTQPASVSGSPGQSITISCTGTSSDVGDYNYVSWYQQHPGKAPKLMIYEVSNRPSGVSNRFSGSKSGNTASLTISGLQAEDEADYYCSSYTSSSTVFGGGTKLTVLG" reported=10.16

Incoming: Annotate the binder antibody 562 (antibody, V domains shown) VH: QVQLVESGGGVVQPGRSLRLSCAASGFTFSSYAMHWVRQAPGKGLEWVAVISYDGSNKYYADSVKGRFTISRDNSKNTLYLQMNSLRAEDTAVYYCARASSGGYQGPFDPWGQGTLVTVSS VL: QSALTQPASVSGSPGQSITISCTGTSSDVGGYNYVSWYQQHPGKAPKLMIYDVSNRPSGVSNRFSGSKSGNTASLTISGLQAEDEADYYCSSYTSSSTLLYVFGTGTKVTVLG with its measured pKd.
Outgoing: 9.86
